Tested on: breast cancer (MDA-MB-231) cells
run_description: Proapoptotic effect by flow cytofluorometry, MDA-MB-231 cells
Type: cell-based
condition: Homo sapiens, 24 hours incubation, three experiments in triplicate, read-out: IC50 ± S.D. (concentration required to cause 50% apoptosis), MDA-MB-231
value_kind: log10 of IC50 (log10 of the value in nM)
Hello, just confirming the data are log10 of IC50 with units of nM.

Give the reported log10 of IC50 for this compound. `CCCCCCCc1ccc(C(=O)CCN2CCOCC2)cc1` 2.74

Give the reported log10 of IC50 for this compound. `CCCCCCCOc1ccc(C(=O)CCN2CCOCC2)cc1` 3.21

Give the reported log10 of IC50 for this compound. `CCCCCCSc1ccc(C(=O)CCN2CCN(C)CC2)cc1` 2.81

Give the reported log10 of IC50 for this compound. `CCCCCCCc1ccc(C(=O)CCN2CCN(C)CC2)cc1` 2.95

Give the reported log10 of IC50 for this compound. `CCCCCCCSc1ccc(C(=O)CCN2CCN(C)CC2)cc1` 2.67

Give the reported log10 of IC50 for this compound. `CCCCCCCc1ccc(C(=O)CCN2CCCCC2)cc1` 3.22

Give the reported log10 of IC50 for this compound. `CCCCCC[Se]c1ccc(C(=O)CCN2CCN(C)CC2)cc1` 3.91

Give the reported log10 of IC50 for this compound. `CCCCC[Se]c1ccc(C(=O)CCN2CCOCC2)cc1` 4.14

Give the reported log10 of IC50 for this compound. `CCCCC[Se]c1ccc(C(=O)CCN2CCCCC2)cc1` 3.90

Give the reported log10 of IC50 for this compound. `CCCCCCCOc1ccc(C(=O)CCN2CCN(C)CC2)cc1` 3.17

Give the reported log10 of IC50 for this compound. `CCCCCSc1ccc(C(=O)CCN2CCOCC2)cc1` 3.90
